- assayed system: HLA-B*54:01
- test protocol: IEDB peptide-MHC binding, purified MHC/competitive/radioactivity; filed as Kd, often an IC50 or EC50 that approximates it; bounds were set here for any values at or beyond the usual limits of such assays
- run conditions: source organism: Mammarenavirus guanaritoense
measured attribute: pKd
For clarity, pKd is expressed as the negative log10 of concentration in mol/L.

# get_value(readout='pKd', item= TPNNFSSIV )
6.39

* * *

- assayed system: HLA-A*02:01
- test protocol: IEDB peptide-MHC binding, purified MHC/competitive/radioactivity; filed as Kd, often an IC50 or EC50 that approximates it; bounds were set here for any values at or beyond the usual limits of such assays
- run conditions: source organism: Hepatitis C virus subtype 2b
measured attribute: Kd (nM)
All answers are understood in nM, so give the number only.

# get_value(readout='Kd', item= YLLPSRGPKL )
646
